Measured values drawn from patent US9840510B1 for this set.

- protocol-text: Compound solubility in water
- Format: physicochemical
value-kind: solubility (µg/mL)

What value of solubility has been recorded for this entry: `Cc1nc(-c2cc(C)n3ncc(C(=O)N[C@H](C4CC4)C(F)(F)F)c3n2)oc1C`
1

I. Cc1cc(-c2ccc(Cl)nc2)nc2c(C(=O)N[C@H](C3CC3)C(F)(F)F)cnn12
II. Cc1ccc(-c2cc(C)n3ncc(C(=O)N[C@H](C4CC4)C(F)(F)F)c3n2)cn1
III. Cc1cc(C)n2ncc(C(=O)NC(C3CC3)C(F)(F)F)c2n1 (stereo not drawn)
Put the entries in order of solubility, starting with the largest number. Write out the labels following the order that was asked for.
III, II, I
(III: 18 µg/mL, II: 1.5 µg/mL, I: 0.8 µg/mL)

----------
- protocol-text: Compound solubility in water
- Type: physicochemical
value-kind: solubility (µg/mL)

Give its solubility value. Item: Cc1cc(-c2ccc(F)cc2)nc2c(C(=O)NC(C3CC3)C(F)(F)F)cnn12 (centres unmarked)
0.4

Can you handle COc1cc(-c2cc(C)n3ncc(C(=O)NC(C4CC4)C(F)(F)F)c3n2)ccc1F (centres unmarked) next?
0.4

Again, but for `Cc1cc(-c2ccc(F)o2)nc2c(C(=O)N[C@H](C)C(F)(F)F)cnn12`
2

P. Cc1cc(-c2cccc(OC3CC3)c2)nc2c(C(=O)NC(C)C(F)(F)F)cnn12 (centres unmarked)
Q. CNC(=O)c1cccc(-c2cc(C)n3ncc(C(=O)NC(C4CC4)C(F)(F)F)c3n2)c1 (centres unmarked)
Which item exceeds the other in solubility, P or Q ? Let me know the label of the one you choose.
Q
(Q: 1.6 µg/mL, P: 0.3 µg/mL)

----------
- protocol-text: Compound solubility in water
- Assay type: physicochemical
value-kind: solubility (µg/mL)

What measured solubility goes with Cc1cc(-c2ccc(F)cc2)n2nc(Cl)c(C(=O)N[C@@H](C)C3CC3)c2n1 [III-33] ?
0.5

One more molecule: Cc1cc(-c2ccc(F)cc2)nc2c(C(=O)N[C@@H](C)C(F)(F)F)cnn12 [III-360]
0.7

Follow-up entry: Cc1cc(-c2cscc2C#N)nc2c(C(=O)NC(C3CC3)C(F)(F)F)cnn12 (stereo not drawn) [III-188]
0.3

Repeat for the following molecule: Cc1cc(N2CCCCC2)nc2c(C(=O)NC(C)C3CC3)cnn12 (stereo not drawn) [III-31]
43.5

Now consider COc1ccc(-c2cc(C)n3ncc(C(=O)NC(C)C(F)(F)F)c3n2)cn1 (stereo not drawn) [III-271] and answer again.
2.3

1. Cc1cc(-c2cccc3c2ncn3C)nc2c(C(=O)NC(C3CC3)C(F)(F)F)cnn12 (stereo not drawn) [III-310]
2. Cc1cc(N2CCCN(C(C)C)C2=O)nc2c(C(=O)NC(C3CC3)C(F)(F)F)cnn12 (stereo not drawn) [III-257]
3. Cc1cc(N2CCN(C(C)C)C2=O)nc2c(C(=O)N[C@@H](C3CC3)C(F)(F)F)cnn12 [III-326]
4. C#CC(C)(C)NC(=O)c1cnn2c(C)cc(-c3cccc(Cl)n3)nc12 [III-63]
List items by solubility in falling order. Please list each label once, in the requested order.
3, 2, 1, 4
(3: 21 µg/mL, 2: 11.6 µg/mL, 1: 0.3 µg/mL, 4: 0.2 µg/mL)

----------
- protocol-text: Compound solubility in water
- Type: physicochemical
value-kind: solubility (µg/mL)

Given COc1cccc(-c2cc(C)n3ncc(C(=O)NC(C)C(F)(F)F)c3n2)c1 (stereo not drawn) [III-55] , state its recorded solubility.
1.7

I. Cc1cc(-c2cccnc2F)nc2c(C(=O)N[C@H](C3CC3)C(F)(F)F)cnn12 [III-114]
II. Cc1cc(-c2ccccn2)n2ncc(C(=O)N[C@@H](C)C3CC3)c2n1 [III-25]
III. Cc1cc(C#N)c(-c2cc(C)n3ncc(C(=O)NC(C4CC4)C(F)(F)F)c3n2)o1 (stereo not drawn) [III-245]
IV. C#CC(C)(C)NC(=O)c1cnn2c(C)cc(-c3cccc(OC)c3)nc12 [III-69]
V. Cc1cc(-c2ccc(C(F)(F)F)nc2)nc2c(C(=O)NC(C)C(F)(F)F)cnn12 (stereo not drawn) [III-288]
Rank by solubility (largest to smallest). Sort and list the labels as requested.
II, I, V, IV, III
(II: 22.5 µg/mL, I: 2.1 µg/mL, V: 1.4 µg/mL, IV: 0.5 µg/mL, III: 0.008 µg/mL)

A. Cc1cc(-c2ccc(F)nc2)nc2c(C(=O)NC(C3CC3)C(F)(F)F)cnn12 (stereo not drawn) [III-84]
B. Cc1cc(-c2cc(C)n3ncc(C(=O)N[C@@H](C)C4CC4)c3n2)sn1 [III-346]
Pick one: A or B . Which one has the lower reported solubility? Your choice should be expressed through its label.
A
(A: 0.8 µg/mL, B: 18.8 µg/mL)

----------
- protocol-text: Compound solubility in water
- Assay type: physicochemical
value-kind: solubility (µg/mL)

Observe how each entry below is paired with its result.
Sample CCc1cc(N2CCN(C(C)C)C2=O)nc2c(C(=O)NC(C)C(F)(F)F)cnn12 (centres unmarked) [III-226] — what was its solubility?
5.9

Then this molecule: COc1c(C#N)cccc1-c1cc(C)n2ncc(C(=O)NC(C3CC3)C(F)(F)F)c2n1 (centres unmarked) [III-141]
1.1

Could you do the same for Cc1cc(N2CCCC(F)(F)C2)nc2c(C(=O)N[C@@H](C3CC3)C(F)(F)F)cnn12 [III-95] , please?
1

1. Cc1cc(-c2cccc(F)c2)nc2c(C(=O)NC(C3CC3)C(F)(F)F)cnn12 (centres unmarked) [III-111]
2. Cc1cc(N2CCC(C)(C)C2=O)nc2c(C(=O)NC(C3CC3)C(F)(F)F)cnn12 (centres unmarked) [III-328]
Dear colleague, could you let me know whether 1 or 2 has the lower recorded solubility? Thanks. Mark your selection by writing its label.
1
(1: 0.07 µg/mL, 2: 3.3 µg/mL)

P. Cc1nc(-c2cc(C)n3ncc(C(=O)N[C@H](C)C(F)(F)F)c3n2)oc1C [III-345]
Q. Cc1cc(-c2cccc(Cl)n2)nc2c(C(=O)N[C@@H](C)C3CC3)cnn12 [III-131]
Hi, I'm comparing two records. Which one has the lower solubility, P or Q ? Output the label that corresponds to your choice.
Q

----------
- protocol-text: Compound solubility in water
- Assay type: physicochemical
value-kind: solubility (µg/mL)

Entry under review: `Cc1cc(-c2noc(C(C)C)n2)nc2c(C(=O)N[C@@H](C3CC3)C(F)(F)F)cnn12` . Reported solubility?
0.7

Another: `CO[C@H]1CC[C@@H]([C@@H](C)NC(=O)c2cnn3c(C)cc(C)nc23)CC1`
15.1

a. Cc1cc(-c2ccon2)nc2c(C(=O)NC(C3CC3)C(F)(F)F)cnn12 (stereo not drawn)
b. Cc1cc(N2CCCN(CC(F)(F)F)C2=O)nc2c(C(=O)NC(C3CC3)C(F)(F)F)cnn12 (stereo not drawn)
Choose between a and b : whose measured solubility value is numerically larger? Reply with the label of the item you choose.
b
(b: 21 µg/mL, a: 0.8 µg/mL)

P. COc1cc(F)cc(-c2cc(C)n3ncc(C(=O)N[C@@H](C)C4CC4)c3n2)c1
Q. Cc1cc(C)n2ncc(C(=O)N[C@H](C)C3CCCCC3)c2n1
Which entry has a larger number for solubility, P or Q ? Please identify the chosen entry by its label.
Q
(Q: 8.7 µg/mL, P: 0.8 µg/mL)

----------
- protocol-text: Compound solubility in water
- Type: physicochemical
value-kind: solubility (µg/mL)

For orientation, consider the following solved cases.
Quick one: solubility for Cc1cc(-c2cccc(Cl)n2)nc2c(C(=O)NC(C3CC3)C(F)(F)F)cnn12 (stereo not shown) ?
0.05

Would you mind doing Cc1ccc(-c2cc(C)n3ncc(C(=O)NC(C4CC4)C(F)(F)F)c3n2)cn1 (stereo not shown) as well?
0.5

Please answer likewise for Cc1cc(-c2cncc(C(F)(F)F)c2)nc2c(C(=O)NC(C)C(F)(F)F)cnn12 (stereo not shown)
1.2

Likewise for Cc1cc(-c2ccccn2)nc2c(C(=O)NC(C)C(F)(F)F)cnn12 (stereo not shown) ?
1.6

Proceed to Cc1cc(N2CC(C)(C)NC2=O)nc2c(C(=O)NC(C3CC3)C(F)(F)F)cnn12 (stereo not shown)
1.3

a. Cc1cc(-c2cncc(Cl)c2)nc2c(C(=O)N[C@@H](C)C(F)(F)F)cnn12
b. Cc1cc(-c2cc(F)ccn2)nc2c(C(=O)NC(C3CC3)C(F)(F)F)cnn12 (stereo not shown)
# min-compare on solubility between a and b Returns: label corresponding to the selected item.
b

P. Cc1cc(N2CCOCC2)nc2c(C(=O)NC(C)(C)C3CC3)cnn12
Q. Cc1cc(-n2ccc(Cl)n2)nc2c(C(=O)NC(C3CC3)C(F)(F)F)cnn12 (stereo not shown)
R. Cc1cc(-c2ccccn2)nc2c(C(=O)NC(C)(C)C3CC3)cnn12
Hey, can you sort those molecules up there by solubility, smallest first? Write out the labels following the order that was asked for.
Q, R, P
(Q: 0.1 µg/mL, R: 1.1 µg/mL, P: 10.3 µg/mL)

P. Cc1cc(-c2cnccc2F)nc2c(C(=O)NC(C3CC3)C(F)(F)F)cnn12 (stereo not shown)
Q. COc1cncc(-c2cc(C)n3ncc(C(=O)NC(C4CC4)C(F)(F)F)c3n2)c1 (stereo not shown)
I would appreciate it if you could say which entry, P or Q , has the lower solubility value. Give the label under which the chosen entry appears.
Q
(Q: 1.3 µg/mL, P: 1.9 µg/mL)
